TARGET_OF_ASSAY: T1, human CD71 extracellular domain (human, UniProt P02786 89-760)
T1 construct: also called hCD71; human CD71-ECD
ASSAY_TEXT: primary ELISA, signal ratio to HSA
PROPERTY_MEASURED: hCD71:HSA

{"columns": ["BINDER", "NUMERIC_RESULT"],
 "data": [
  ["CD71-binding FN3 domain of SEQ ID NO: 155 (designed binder) MSLPAPENLVVSRVTEDSARLSWTAPDAAFDSFEIGYFENLYLGEAIVLTVPGSERSYDLTGLKPGTEYWVQIGGVKGGVWSRPLSAIFTT", 151],
  ["CD71-binding FN3 domain of SEQ ID NO: 147 (designed binder) MSLPAPKNLVVSRVTEDSARLSWTAPDAAFDSFFIGYLEPQPPGEAIELFVPGSERSYDLTGLKPGTEYNVTIQGVKGGFPSGPLIASFTT", 173]
]}
